Ref: paper PMC11062922

Here the recorded potency estimated from few doses is given for each entry.
tested on: CHEK1; parameters: species or system human, MV4-11 + K-562 + COLO205 + SK-N-BE2 + OVCAR-8; details: read-out: apparent Kd; compound concentrations:100 nM and 1000 nM (sheet 'Samples'); n = 1
// return numeric value only (unit: nM, not printed)

Here are 5 molecules together with their reported answers.
molecule	unitsText	potency estimated from few doses
COc1ccc(O)c(C(=O)c2ccc(C(=O)O[C@@H]3CCCNC[C@H]3NC(=O)c3ccncc3)cc2)c1F.Cl	nM	26.5
CS(=O)(=O)CCn1c(=O)c(Oc2ccc(F)cc2F)cc2cnc(NC3CCOCC3)nc21	nM	1500
O=C1NC(=O)C(N2CCc3ccccc32)=C1c1ccccc1Cl	nM	999
CC(=O)N[C@@H](Cc1ccc(OP(=O)(O)O)cc1)C(=O)N[C@H]1CCC(=O)N2CCC[C@@H](C(=O)NCc3ccc(Cl)cc3)N2C1=O	nM	1950
Cl.Cl.NCC(C(=O)Nc1cc(Br)c(-c2ccnc3[nH]ccc23)s1)c1ccccc1.NCC(C(=O)Nc1cc(Br)c(-c2ccnc3[nH]ccc23)s1)c1ccccc1 (centres unmarked) [GSK1269851A]	nM	1700

Lookup: Look at this molecule and give its reported potency estimated from few doses. CC(C)N1CCC(n2cnc(-c3ccc(F)cc3)c2-c2ccnc(N)n2)CC1
Found: 1740

Lookup: Please give the measured potency estimated from few doses for this molecule: O=C(O)C(F)(F)F.O=c1[nH]ccc2nc(N[C@@H]3CCNC3)nc(Nc3cc(Cl)cc(Cl)c3)c12 [GSK2188764A]
Found: 711

Lookup: Name the recorded potency estimated from few doses for CCn1c(-c2nonc2N)nc2cncc(CNC3CCNCC3)c21 [SB-747651A] .
Found: 2160

---

tested on: IKBKE; set-up: species or system human, MV4-11 + K-562 + COLO205 + SK-N-BE2 + OVCAR-8; settings: read-out: apparent Kd; compound concentrations:100 nM and 1000 nM (sheet 'Samples'); n = 1
endpoint: potency estimated from few doses (µM)
Express your answer in µM, writing the number without its unit.

Before answering, review these 4 worked examples.
> print(dat)
                                   compound  numericresult
1  CCn1cc(-c2ccnc3[nH]c(-c4cccc(CN(C)C)c4)cc23)c(-c2ccc(NC(=O)N(C)C)cc2)n1           1.96
2  CN(C)CC(O)COc1ccc(Nc2nccc(-c3cnn4nc(N5CCOCC5)ccc34)n2)cc1 (centres unmarked) [GW767488X]           2.01
3  CC(C)Oc1ccc2c(-c3ccnc(Nc4ccc(N5CCN(C)CC5)cc4)n3)cnn2n1 [GW696155X]          0.343
4  Nc1nc(-c2ccc3c(N)n[nH]c3c2)cc(N2CCCC(NC(=O)c3ccccc3)C2)n1 (centres unmarked) [GSK2286775B]          0.298

Switching to the query record.
Lookup: API: value(readout= potency estimated from few doses, system= IKBKE, query= CNC(=O)c1ccccc1Nc1nc(Nc2ccc(N3CCOCC3)cc2)ncc1Cl.Cl [GSK1576028A] )
Found: 1.54

---

system: AURKB; set-up: species or system human, MV4-11 + K-562 + COLO205 + SK-N-BE2 + OVCAR-8; conditions: read-out: apparent Kd; compound concentrations:100 nM and 1000 nM (sheet 'Samples'); n = 1
endpoint: potency estimated from few doses (nM)
Response body: numeric value in nM, unit text excluded.

compound	unitsText	numericResult
Nc1ncnc2occ(-c3ccc(NC(=O)Nc4cc(C(F)(F)F)ccc4F)cc3)c12	nM	1400
CC(C)NCC(Cc1ccccc1)NC(=O)c1cc(Br)c(-c2ccnc3[nH]ccc23)s1.CC(C)NCC(Cc1ccccc1)NC(=O)c1cc(Br)c(-c2ccnc3[nH]ccc23)s1.Cl.Cl (centres unmarked) [GSK1383281A]	nM	950
NC(=O)Nc1sc(-c2ccc(F)cc2)cc1C(N)=O [GW789449X]	nM	1310
O=C1NC(=O)C(N2CCc3ccccc32)=C1c1ccccc1Cl	nM	466
CN(C)CCNC(=O)Nc1ccc(N(C)c2ccnc(Nc3ccc(CS(C)(=O)=O)cc3)n2)cc1.Cl [GW830900A]	nM	387
Nc1nc(-c2ccc3c(N)n[nH]c3c2)cc(N2CCCC(NC(=O)c3ccccc3)C2)n1 (centres unmarked) [GSK2286775B]	nM	414
CN1C[C@@H]2Cn3c(c(C4=C(c5cn(C)c6ccccc56)C(=O)NC4=O)c4ccccc43)C[C@H]2C1.Cl	nM	444

Turning to the following compound.
Lookup: Look at this compound and give its reported potency estimated from few doses. CN1CCN(C(=O)c2ccc(NC(=O)Nc3ccc(N(C)c4ccnc(Nc5ccc(CS(C)(=O)=O)cc5)n4)cc3)cc2)CC1.Cl [GW830263A]
Found: 247

---

test system: RIPK2; set-up: species or system human, MV4-11 + K-562 + COLO205 + SK-N-BE2 + OVCAR-8; settings: compound concentrations:0.3nM, 1nM, 3nM, 10nM, 30nM, 100nM, 300nM, 1000nM,R2:0.98843771673654501,slope:0.97698272947785902,EC50 Standard Error, by the legend:Standard error of the EC50 estimation as provided by the drc package.
endpoint: EC50 (nM)
Give the value, in units of nM, as a plain number.

Lookup: May I ask what EC50 has been recorded for Cl.NCc1ccc(-c2nc(-c3ccc(Cl)c(O)c3)c(-c3ccncc3)[nH]2)cc1 ?
Found: 55.9

---

system: SPR; parameters: species or system human, MV4-11 + K-562 + COLO205 + SK-N-BE2 + OVCAR-8; details: read-out: apparent Kd; compound concentrations:0.3nM, 1nM, 3nM, 10nM, 30nM, 100nM, 300nM, 1000nM,R2:0.99512909296274499,slope:1.24359258072984,EC50 Standard Error, by the legend:Standard error of the EC50 estimation as provided by the drc package.
endpoint: pKd
Reminder that pKd is minus the log10 of a molar concentration.

Lookup: What value of pKd on SPR does Cl.NCc1ccc(-c2nc(-c3ccc(Cl)c(O)c3)c(-c3ccncc3)[nH]2)cc1 [SB-476429-A] have?
Found: 7.48

---

test system: CSNK2A2; details: read-out: Average; hek293t cells; SD, n = 2
endpoint: IC50

Lookup: IC50 for COc1cc(Nc2ncc3c(C)nc(-c4cc5ccccc5[nH]4)n3n2)cc(OC)c1OC [GW869516X] ?
Found: 319 nM

---

system: ADK; design: species or system human, MV4-11 + K-562 + COLO205 + SK-N-BE2 + OVCAR-8; conditions: read-out: apparent Kd; compound concentrations:100 nM and 1000 nM (sheet 'Samples'); n = 1
Entries annotated with measured potency estimated from few doses
Unit nM implied. Number only.

> print(dat)
                                   compound                          endpoint  unitstext  numericresult
1  C[C@@H](c1ccccc1)[C@@H](C(=O)Nc1ccc(I)cc1F)N1C(=O)N[C@H](c2ccc(OC[C@H](O)CO)cc2)C1=O  potency estimated from few doses         nM           1000
2  CC(=O)c1c(-c2ccncc2)[nH]c(-c2ccncc2)c1C [GW493036X]  potency estimated from few doses         nM           1760
3  COc1cc2ncn(-c3cc(OCc4cccs4)c(C(N)=O)s3)c2cc1OC [GSK312948A]  potency estimated from few doses         nM            863

Below: the item to evaluate.
Lookup: Give its potency estimated from few doses value. Item: O=c1cc(N2CCOCC2)nc2n(Cc3cccc4ccccc34)ccn12 [GSK2333389A]
Found: 889

---

Overview of reported potency estimated from few doses across a group of molecules:
tested on: BCR; set-up: species or system human, MV4-11 + K-562 + COLO205 + SK-N-BE2 + OVCAR-8; details: read-out: apparent Kd; compound concentrations:100 nM and 1000 nM (sheet 'Samples'); n = 1
Quick note: number first, unit second.

// worked examples, potency estimated from few doses included
> print(dat)
                                   molecule                          endpoint   result
1  CS(=O)(=O)CCn1c(=O)c(Oc2ccc(F)cc2F)cc2cnc(NC3CCOCC3)nc21  potency estimated from few doses   693 nM
2  Cl.Cn1c(=O)c(Cc2ccc(F)cc2F)cc2cnc(NC3CCOCC3)nc21  potency estimated from few doses   477 nM
3  Cc1ccc2c(-c3ccncc3)c(-c3ccc(F)cc3)nn2c1.Cl [GW461484A]  potency estimated from few doses   545 nM
4  CC(=O)c1c(-c2ccncc2)[nH]c(-c2ccncc2)c1C [GW493036X]  potency estimated from few doses   277 nM
5  CN1C[C@@H]2Cn3c(c(C4=C(c5cn(C)c6ccccc56)C(=O)NC4=O)c4ccccc43)C[C@H]2C1.Cl  potency estimated from few doses  57.1 nM
6  CN(C)CCOc1ccc(-c2cc(-c3c[nH]nc3-c3ccccn3)ccn2)cc1 [GW835314X]  potency estimated from few doses   668 nM

Lookup: Field request: potency estimated from few doses | item: CCN(CC)CCOc1ccc(Nc2ncc3cc(-c4c(Cl)cccc4Cl)c(=O)n(C)c3n2)cc1
Found: 5.53 nM
